Just for reference, the supplement of paper PMC10724198 is where these values come from.

Test system: Saccharomyces cerevisiae
Test: protein stability index of tFT-peptide fusion (C-terminal peptide) (PSI (0-1 scale)); higher = more stable (slower turnover)
Settings: genetic background: wild type; temperature: 30 C
Quantity name: protein stability index

*Q* Item under review: PSSPHTAIRHPL . Reported protein stability index?
*A* 0.671

*Q* Bench note: what protein stability index did CHRLGRTTGRIR show?
*A* 0.692

*Q* Consider the sequence MRVKRVEVVRGG and give its measured protein stability index.
*A* 0.69

*Q* I'd like to know its protein stability index. The sequence in question is IRPPVLTDAIHS
*A* 0.708

*Q* Data request, read-out protein stability index, for VLVLLVCVAALV
*A* 0.239

More entries:
*Q* Field request: protein stability index | item: KQRENMCRCARE
*A* 0.712

*Q* // query protein stability index value for entry KKKKKRKKKKEK
*A* 0.683

* * *

The entries below are paired with their reported protein stability index.
Test system: Saccharomyces cerevisiae
Experiment: protein stability index of tFT-peptide fusion (C-terminal peptide) (PSI (0-1 scale)); higher = more stable (slower turnover)
Conditions: genetic background: das1 deletion; temperature: 30 C
Answer with a number only.

Before answering, review these 2 worked examples.
*Q* For the sequence shown here, VGLLFGWVWSLW , give the reported protein stability index.
*A* 0.56

*Q* # query: protein stability index of entry GAVRRWGWVSFV
*A* 0.643

---
*Q* Requested read-out: protein stability index. Entry: RLPVMFWFVCSF
*A* 0.477

*Q* Request the reported protein stability index associated with GFLFVLCAWGFF
*A* 0.227

*Q* Entry GRVYLLGLYMSF has what protein stability index?
*A* 0.306

*Q* Field request: protein stability index | item: TVILVLFPSPFL
*A* 0.472

* * *

System: Saccharomyces cerevisiae
Assay: protein stability index of tFT-peptide fusion (C-terminal peptide) (PSI (0-1 scale)); higher = more stable (slower turnover)
Conditions: genetic background: das1 deletion; temperature: 30 C
Quick rule for you: protein stability index at 0.7 or higher means label 1, lower means label 0.

A selection of reference data follows.
*Q* Given the entry IIFVVLLCKKSR [ASG7 C-terminal 12 aa] , answer whether its protein stability index meets or surpasses 0.7.
*A* label 0

*Q* Quick check, protein stability index >= 0.7? QILLDKLNAVKK [HIT1 C-terminal 12 aa]
*A* label 0

Continue with the sequence presented below.
*Q* Confirm if protein stability index reported for the sequence RELGFLFGLNAL [ULS1 C-terminal 12 aa] is 0.7 or above.
*A* label 1

* * *

System: Saccharomyces cerevisiae
Assay: protein stability index of tFT-peptide fusion (C-terminal peptide) (PSI (0-1 scale)); higher = more stable (slower turnover)
Conditions: genetic background: das1 deletion; temperature: 37 C
Note to self: values exactly at 0.6 are t. So protein stability index at or above 0.6 is t, below is f.

// known answers, use as guide
*Q* Confirm if protein stability index reported for the sequence VPPLPPPGPPTF is 0.6 or above.
*A* t

*Q* Kindly determine if protein stability index recorded for HLYITGIIRKIT is above or exactly 0.6.
*A* t

*Q* Does the reported protein stability index for VGLWFLCSLAFS fall at or above the 0.6 mark?
*A* f

Pending sequence:
*Q* Item APPRLPLLSCSQ with protein stability index of 0.6 or above?
*A* t

* * *

Tested on: Saccharomyces cerevisiae
Assay: protein stability index of tFT-peptide fusion (C-terminal peptide) (PSI (0-1 scale)); higher = more stable (slower turnover)
Details: genetic background: wild type; temperature: 30 C
Quantity name: protein stability index

*Q* // query protein stability index value for entry RLTKKKKEIKRR
*A* 0.717

*Q* Reported protein stability index for PAVIVAPYSQGE : what is it?
*A* 0.701

*Q* Query: protein stability index; subject: EDFKTKQKKKKE
*A* 0.709

---
*Q* So what's the measured protein stability index for this one? ADPPLFYPPSHT
*A* 0.69

*Q* Please look up its protein stability index: ARPFCPLYTPRG
*A* 0.686

*Q* Which protein stability index value is on record for FNIRDKVKRGAL ?
*A* 0.666

*Q* Looking for the measured protein stability index of CGWGVMDAVGSR , can you help?
*A* 0.685

*Q* Need protein stability index, item SRHVAGVGGGEV
*A* 0.652

*Q* Any idea what its protein stability index is? The sequence is CRTPQICASCLC
*A* 0.59

*Q* Please look up its protein stability index: SAFSSSLTALPP
*A* 0.653

*Q* If you can, please state the reported protein stability index value of VGYSLFTFLFCA .
*A* 0.432

*Q* Query: protein stability index; subject: GKVSSFVLFHIS
*A* 0.301

*Q* Returns the measured protein stability index for the input sequence. Input: VGGGAVRAWGLR
*A* 0.688

*Q* State the recorded protein stability index for this entry: MNPSADYSIGAR
*A* 0.688

*Q* Reported protein stability index, sequence GFVVGVGIVSWG : ____
*A* 0.611

*Q* I am curious: what protein stability index value has been reported for VPPLPPDSCTVT ?
*A* 0.699

*Q* Suppose we examine the sequence FPPPLPPRLPPP ; what protein stability index value has been reported?
*A* 0.702

*Q* GET /values?readout=protein stability index&item= LRRPSPPTPSPP
*A* 0.86

*Q* Fill blank: measured protein stability index of the sequence SDEIKTLGLRKK is ____.
*A* 0.683

*Q* Recorded protein stability index for RRVMGRLKNQIK , please?
*A* 0.667

*Q* What value of protein stability index has been reported for the following sequence? SNLYNSENVPVD
*A* 0.709

* * *

Test system: Saccharomyces cerevisiae
Assay: protein stability index of tFT-peptide fusion (C-terminal peptide) (PSI (0-1 scale)); higher = more stable (slower turnover)
Settings: genetic background: das1 deletion; temperature: 30 C
# protein stability index listing for each entry below
Lab note: record just the number, no unit beside it.

Use the examples below as a reference point.
*Q* Query (sequence): ELKRKDALSKKI [COA2 C-terminal 12 aa] ; field requested: protein stability index
*A* 0.688

*Q* I would be grateful if you could share the reported protein stability index for ARVASQLGQKKK [PRO3 C-terminal 12 aa] .
*A* 0.674

Others:
*Q* Request the reported protein stability index associated with IYRRRKNKIFFW [RCK1 C-terminal 12 aa]
*A* 0.705

* * *

Test system: Saccharomyces cerevisiae
Experiment: protein stability index of tFT-peptide fusion (C-terminal peptide) (PSI (0-1 scale)); higher = more stable (slower turnover)
Details: genetic background: cdc34-1; temperature: 37 C
Quantity name: protein stability index

*Q* // lookup protein stability index for FRHKLSLGLVIV
*A* 0.54

*Q* What value of measured protein stability index is listed for FCVCLAVTCCGG ?
*A* 0.279

In the following, a different sequence is considered.
*Q* Entry CLYATQFWGRYG has what protein stability index?
*A* 0.69

* * *

Tested on: Saccharomyces cerevisiae
Assay: protein stability index of tFT-peptide fusion (C-terminal peptide) (PSI (0-1 scale)); higher = more stable (slower turnover)
Details: genetic background: das1 deletion; temperature: 30 C
Quantity name: protein stability index
Write the value as a bare number.

*Q* Looking for the measured protein stability index of NASWAFLCYFCV , can you help?
*A* 0.538

*Q* I have this sequence here, KKKTKYSKDKLC , and I need its recorded protein stability index.
*A* 0.662

*Q* Look up protein stability index: CIIAVMISIVSF
*A* 0.0327

***
*Q* Quick one: protein stability index of PCNVLWYSLFLF ?
*A* 0.452

*Q* Record request: protein stability index value, item RVCCLSFFFVFL
*A* 0.398

*Q* Recorded protein stability index of RISYKTKINELI , please.
*A* 0.607

*Q* Given RYVFAFRRNYFC , state its recorded protein stability index.
*A* 0.636

*Q* Value lookup for protein stability index; key = RVITRMLLMVIR
*A* 0.353

*Q* Which protein stability index value belongs to YLMVSKMSLRIG ?
*A* 0.532

*Q* I'd like to know its protein stability index. The sequence in question is CCMLCVVAWSGV
*A* 0.303

* * *

Test system: Saccharomyces cerevisiae
Assay: protein stability index of tFT-peptide fusion in wild type (PSI (0-1 scale)); higher = more stable (slower turnover)
Settings: genetic background: wild type
Quantity name: protein stability index
Write the number on its own, no unit after it.

*Q* What is its protein stability index for Saccharomyces cerevisiae? Entry: FSMRSTFRYWVN
*A* 0.096

* * *

Test system: Saccharomyces cerevisiae
Assay: protein stability index of tFT-peptide fusion (C-terminal peptide) (PSI (0-1 scale)); higher = more stable (slower turnover)
Conditions: genetic background: doa10 deletion; temperature: 30 C
Reported protein stability index values are given for each entry in this list.
# respond with the number and nothing more

Solved cases (5 shown):
*Q* What does the record list as protein stability index for ETVHVISLIAIG ?
*A* 0.279

*Q* # query: protein stability index of entry CSFPTFRSLLLL
*A* 0.218

*Q* Which measured protein stability index value corresponds to RCSLFAKQVVSL ?
*A* 0.437

*Q* Name the reported protein stability index value associated with the sequence LRLFIFLLFSVF
*A* 0.19

*Q* Value lookup for protein stability index; key = PGVWVVILRWWV
*A* 0.0879

Further cases:
*Q* Name the recorded protein stability index for GPWVIFSHLLLT .
*A* 0.258

*Q* Any idea what protein stability index was measured for VFFRVLVAGCRQ ?
*A* 0.449

*Q* Name the reported protein stability index value associated with the sequence VVFLWRCRLLLG
*A* 0.0938

*Q* Any idea what protein stability index was measured for SVLALLWVGCWL ?
*A* 0.253

*Q* I would be grateful if you could share the reported protein stability index for LVHLVLYVAVFC .
*A* 0.288

*Q* Please look up its protein stability index: FLVCTFCRWVWL
*A* 0.165

*Q* Value lookup for protein stability index; key = SWCLLVWIGGVF
*A* 0.251

*Q* What value of protein stability index has been reported for the following sequence? EFFTLYDLVRFI
*A* 0.192

*Q* Name the reported protein stability index value associated with the sequence FRFFYLPVSVVA
*A* 0.105

*Q* Item FLLFFVLRLLPC has what recorded protein stability index?
*A* 0.255

*Q* Which protein stability index value is on record for FWVNFLFVLFIL ?
*A* 0.263

*Q* Entry CSPSCNIVRLVS has what protein stability index?
*A* 0.11

*Q* Could you tell me which protein stability index is on file for VGKGAGVRDGSR ?
*A* 0.651

*Q* I have this sequence here, FLIFVVIGGVGL , and I need its recorded protein stability index.
*A* 0.227

*Q* Recorded protein stability index for GFFFYFVLFGLS , please?
*A* 0.285

*Q* Returns the measured protein stability index for the input sequence. Input: LSFFFWFIFSLC
*A* 0.344
